Biological target: T1, human CD47 on cells (SHP-77 tumor cells, human red blood cells, CCRF-CEM cells, human CD47 CHO-K1 stable cell … (human, UniProt Q08722 19-323))
T1 construct: whole, on cells; also called RBC
Experiment: flow cytometry on human RBCs;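 further: antibody binding measured by flow cytometry as geometric mean fluorescence intensity over a range of antibody concentrations, with EC50 and maximum taken from a sigmoidal dose-response fit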
Listed below: Fitted Maximal MFI values for each entry.
Numeric answer only, unit MFI assumed.

INSERT INTO assay_data (binder, endpoint_value) VALUES
  ('108VH10.Mq / 108VL10.Me (antibody, V domains shown, 4D5-framework series; constant regions not restated for this series; also called VH10.Mq VL10.Me) VH: EVQLVESGGGLVQPGGSLRLSCAASGFTFSHHWIHWVRQAPGKGLEWVAMIDASDSETRLSDSVKGRFTISADTSKNTAYLQMNSLRAEDTAVYYCSRLGRYYFDYWGQGTLVTVSS VL: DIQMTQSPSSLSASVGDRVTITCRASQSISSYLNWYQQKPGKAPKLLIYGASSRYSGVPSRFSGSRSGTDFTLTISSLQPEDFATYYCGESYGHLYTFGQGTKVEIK', 19400),
  ('108VH5.M24 / 108VL1.M5 (antibody, human IgG4 S228P, kappa, V domains shown, Full-length IgG4 (S228P), kappa; also called VH5.M24 VL1.M5) VH: EVQLVQSGAEVKKPGASVKVSCKASGYTFTHHWMHWVRQAPGQGLEWMGMIDASDLETRYAQKFQGRVTMTRDTSTSTVYMELSSLRSEDTAVYYCARLGRYYFDYWGQGTLVTVSS VL: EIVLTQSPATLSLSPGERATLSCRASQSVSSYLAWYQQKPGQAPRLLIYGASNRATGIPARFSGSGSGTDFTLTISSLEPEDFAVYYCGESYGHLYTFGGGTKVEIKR', 29200),
  ('108VH10.Mp / 108VL10.Me (antibody, V domains shown, 4D5-framework series; constant regions not restated for this series; also called VH10.Mp VL10.Me) VH: EVQLVESGGGLVQPGGSLRLSCAASGFTFSHHWIHWVRQAPGKGLEWVAMIDASDSETRLVDSFKGRFTISADTSKNTAYLQMNSLRAEDTAVYYCSRLGRYYFDYWGQGTLVTVSS VL: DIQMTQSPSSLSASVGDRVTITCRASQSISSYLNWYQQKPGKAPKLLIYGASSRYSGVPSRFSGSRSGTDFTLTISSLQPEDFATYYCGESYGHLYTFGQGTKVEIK', 16100),
  ('108VH5.M23 / 108VL1.M5 (antibody, human IgG4 S228P, kappa, V domains shown, Full-length IgG4 (S228P), kappa; also called VH5.M23 VL1.M5) VH: EVQLVQSGAEVKKPGASVKVSCKASGYTFTHHWMHWVRQAPGQGLEWMGMIDASDKETRYAQKFQGRVTMTRDTSTSTVYMELSSLRSEDTAVYYCARLGRYYFDYWGQGTLVTVSS VL: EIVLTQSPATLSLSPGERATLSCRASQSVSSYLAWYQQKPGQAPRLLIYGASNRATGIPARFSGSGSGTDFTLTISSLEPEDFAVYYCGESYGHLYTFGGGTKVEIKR', 38800);

Could you now consider this next binder?
# input Entry 108VH5.M21 / 108VL1.M5 (antibody, human IgG4 S228P, kappa, V domains shown, Full-length IgG4 (S228P), kappa; also called VH5.M21 VL1.M5) VH: EVQLVQSGAEVKKPGASVKVSCKASGYTFTHHWMHWVRQAPGQGLEWMGMIDASDFETRYAQKFQGRVTMTRDTSTSTVYMELSSLRSEDTAVYYCARLGRYYFDYWGQGTLVTVSS VL: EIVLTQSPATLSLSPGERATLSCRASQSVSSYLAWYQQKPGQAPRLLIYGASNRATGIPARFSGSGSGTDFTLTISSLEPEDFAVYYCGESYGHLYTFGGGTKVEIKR has what Fitted Maximal MFI?
# output 40800
